measurement_target: CCKB receptor (Cavia porcellus)
Sequence (H0VZC5 1-426): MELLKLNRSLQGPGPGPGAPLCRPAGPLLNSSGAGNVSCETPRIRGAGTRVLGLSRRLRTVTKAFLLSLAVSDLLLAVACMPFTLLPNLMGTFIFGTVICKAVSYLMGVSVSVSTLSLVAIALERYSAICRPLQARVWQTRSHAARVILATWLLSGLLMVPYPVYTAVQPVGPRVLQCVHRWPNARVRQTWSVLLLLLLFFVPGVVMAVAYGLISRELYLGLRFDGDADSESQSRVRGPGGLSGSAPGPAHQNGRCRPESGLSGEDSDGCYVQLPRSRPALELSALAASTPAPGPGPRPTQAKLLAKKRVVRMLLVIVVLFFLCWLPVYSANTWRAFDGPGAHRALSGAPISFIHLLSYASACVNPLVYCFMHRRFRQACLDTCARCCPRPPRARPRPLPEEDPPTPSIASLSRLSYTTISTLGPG
pIC50: −log10 of the molar value.
The reader will find reported pIC50 values listed item by item below.

Below: 10 molecules and their reported pIC50.
{"molecule": "O=C1C=C(Cl)C(O)(c2ccc(Cl)cc2)N1Cc1ccccc1 (stereo not shown) [Example 19]", "pIC50": "< 5.00"}
{"molecule": "C[C@H](c1ccccc1)N1C(=O)C=C(Cl)C1(O)c1ccccc1 (single isomer, unassigned) [Example 10a]", "pIC50": "< 5.00"}
{"molecule": "O=C1C=C(Cl)C(O)(c2ccccc2)N1C1CC1 (stereo not shown) [Example 1]", "pIC50": "< 5.00"}
{"molecule": "O=C1C=C(Cl)C(O)(c2ccc(Cl)cc2)N1C1CCCC1 (stereo not shown) [Example 17]", "pIC50": "< 5.00"}
{"molecule": "O=C1C=C(Cl)C(O)(c2ccccc2)N1Cc1ccccc1 (stereo not shown) [Example 9]", "pIC50": "< 5.00"}
{"molecule": "CN1C(=O)C=C(Cl)C1(O)c1ccccc1 (stereo not shown) [Example 4]", "pIC50": "< 5.00"}
{"molecule": "Cc1ccc(N2C(=O)C=C(Cl)C2(O)c2ccccc2)cc1C (stereo not shown) [Example 2]", "pIC50": "< 5.00"}
{"molecule": "CC(C)N1C(=O)C=C(Cl)C1(O)c1ccccc1 (stereo not shown) [Example 3]", "pIC50": "< 5.00"}
{"molecule": "CC(C)CN1C(=O)C=C(Cl)C1(O)c1ccccc1 (stereo not shown) [Example 8]", "pIC50": 8.00}
{"molecule": "O=C1C=C(Cl)C(O)(c2ccc(Cl)cc2)N1CCc1ccccc1 (stereo not shown) [Example 15]", "pIC50": 8.82}

INPUT: # returns recorded pIC50 (system: CCKB receptor (Cavia porcellus)) for CC(C)N1C(=O)C=C(Cl)C1(O)c1ccc(Cl)cc1 (stereo not shown) [Example 13]
OUTPUT: < 5.00

INPUT: GET /values?readout=pIC50&system=CCKB receptor (Cavia porcellus)&item= CN1C(=O)C=C(Cl)C1(O)c1ccc(Cl)cc1 (stereo not shown) [Example 14]
OUTPUT: < 5.00

INPUT: // map C[C@H](c1ccccc1)N1C(=O)C=C(Cl)C1(O)c1ccccc1 (single isomer, unassigned) [Example 10b] to recorded pIC50 (system: CCKB receptor (Cavia porcellus))
OUTPUT: < 5.00

###

quantity_name: melting point

Record excerpt, results attached:
{"compound": "C[C@H](c1ccccc1)N1C(=O)C=C(Cl)C1(O)c1ccccc1 (single isomer, unassigned) [Example 10a]", "melting point": "162 to 164 °C"}
{"compound": "O=C1C=C(Cl)C(O)(c2ccccc2)N1CCc1ccccc1 (centres unmarked) [Example 5]", "melting point": "155 to 158 °C"}
{"compound": "O=C1C=C(Cl)C(O)(c2ccc(Cl)cc2)N1CCc1ccccc1 (centres unmarked) [Example 15]", "melting point": "145 to 148 °C"}
{"compound": "O=C1C=C(Cl)C(O)(c2ccc(Cl)cc2)N1Cc1ccccc1 (centres unmarked) [Example 19]", "melting point": "149 to 152 °C"}

INPUT: GET /values?readout=melting point&item= Cc1ccc(N2C(=O)C=C(Cl)C2(O)c2ccccc2)cc1C (centres unmarked) [Example 2]
OUTPUT: 168 to 171 °C
